ASSAY: NCI Yeast Anticancer Drug Screen. Data for the rad14 strain (AID 159);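 also: 0% = growth of vehicle-treated control cultures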
TEST CONTEXT: S. cerevisiae rad14 strain growth inhibition; at 33.0 µM; active compounds read high
Compounds without any hit were thinned out: in the full panel of roughly 79,000, 15% have a hit.
// values below are reported growth inhibition
Report as a plain number; the unit % is understood.

Consider the following illustrative entries.
Ask: Provide one value: measured growth inhibition of COc1cc(CC2CC(c3ccc4c(c3)OCO4)OC2=O)cc(OC)c1OC (stereo unspecified)
Reply: 4

Ask: Provide one value: measured growth inhibition of COc1cc(C2C3=C(COC3=O)Oc3cc4c(cc32)OCO4)ccc1O (stereo unspecified)
Reply: -8

Ask: Provide one value: measured growth inhibition of `[O-][n+]1c2ccc(O)cc2nc2ccc(Cl)cc21`
Reply: 58

Ask: Provide one value: measured growth inhibition of CC1C(NNc2ccccc2)Oc2cc3c(cc2C1c1ccccc1O)OCO3 (stereo unspecified)
Reply: 93

Ask: Provide one value: measured growth inhibition of `Cc1ccc(-n2cc(-c3ccc(Cl)cc3)c(C#N)c2N)cc1`
Reply: -12

Now, please, on to the next molecule.
Ask: Provide one value: measured growth inhibition of `CC1=C(SCCO)C(=O)c2ccccc2C1=O`
Reply: 17

----------
ASSAY: NCI Yeast Anticancer Drug Screen. Data for the mgt1 strain (AID 153)
TEST CONTEXT: S. cerevisiae mgt1 mutant growth inhibition; at 11.0 µM; active compounds read high
About 79,000 compounds went through this panel and 15% of them were active in at least one assay; those are over-represented in the sample as a whole.
MEASURED METRIC: growth inhibition (%)
Report as a plain number; the unit % is understood.

Consider the following illustrative entries.
Ask: Provide one value: measured growth inhibition of `C/C(=N/NC(=S)N1CCCCCC1)c1cccc(/C(C)=N\NC(=S)N2CCCCCC2)n1`
Reply: 52

Ask: Provide one value: measured growth inhibition of OC(COc1cccc2ccccc12)CN1CCOCC1 (stereo unspecified)
Reply: 42

Ask: Provide one value: measured growth inhibition of `CN(C)CCn1c2c3ccccc3ccc2c2oc(=O)c3ccccc3c21`
Reply: 49

Ask: Provide one value: measured growth inhibition of `CN(N=O)N1C(=O)SCC(c2ccccc2)(c2ccccc2)C1=O`
Reply: 1

Ask: Provide one value: measured growth inhibition of `S=C(N/N=C/c1ccccn1)Nc1ccc(Cl)cc1`
Reply: 9

Now, please, on to the next molecule.
Ask: Provide one value: measured growth inhibition of `O=[N+]([O-])c1cc(CCl)ccc1CCl`
Reply: 25

----------
// values below are reported growth inhibition
ASSAY: NCI Yeast Anticancer Drug Screen. Data for the mec2-1 strain (AID 157)
TEST CONTEXT: S. cerevisiae mec2-1 strain, at 50.0 µM (retest, dose inferred, filed as 5.0), active compounds read high
This is part of a sample that, as a whole, favours compounds with a hit. Of some 79,000 tested, about 15% had one in any assay.
Report as a plain number; the unit % is understood.

Ask: Provide one value: measured growth inhibition of `COc1ccc2sc3cccc(NCCN(C)C)c3c(=O)c2c1`
Reply: 3

Now, please, on to the next compound.
Ask: Provide one value: measured growth inhibition of `COC(=O)CCNc1c2ccccc2nc2cccc([N+](=O)[O-])c12`
Reply: 99

----------
ASSAY: NCI Yeast Anticancer Drug Screen. Data for the cln2 rad14 strain (AID 165);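 also: 0% = growth equal to vehicle treated cultures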
TEST CONTEXT: S. cerevisiae cln2 rad14 strain, at 50.0 µM (retest, dose inferred, filed as 5.0), active compounds read high
This is part of a sample that, as a whole, favours compounds with a hit. Of some 79,000 tested, about 15% had one in any assay.
Please assign a class to every record based on measured growth inhibition, with ranges zone 1 (below 30%), zone 2 (30% to below 60%), zone 3 (60% or more)

Ask: Which bin should I file `COc1ccc(-c2cn(-c3ccc(I)cc3)c3ncnc(N)c23)cc1` under?
Reply: zone 3

Ask: Which bin should I file O=C1CSC(/C=C/c2ccccc2)N1c1ccc(-c2ccc(-n3c(-c4ccccc4)nc4ccccc4c3=O)cc2)cc1 (configuration not stated) under?
Reply: zone 2

Ask: Which bin should I file COC1=CC(=O)C(C2(OC(C)C)OC(=O)C(Cl)=C2Cl)=CC1=O (configuration not stated) under?
Reply: zone 3

Ask: Which bin should I file `CC[C@@]1(O)C(=O)OCc2c1cc1n(c2=O)Cc2cc3c(N)cccc3nc2-1` under?
Reply: zone 1

Ask: Which bin should I file `CCOC(=O)c1cnc2c(C(F)(F)F)cccc2c1N=[N+]=[N-]` under?
Reply: zone 1

Ask: Which bin should I file `Cc1cc(S(=O)(=O)/N=C(/NN)NNc2cccc(C(F)(F)F)n2)c(S)cc1Cl` under?
Reply: zone 1

Ask: Which bin should I file `N#C/C(=C\c1cccc(OCc2ccccc2)c1)c1ccc([N+](=O)[O-])cc1` under?
Reply: zone 2

----------
ASSAY: NCI Yeast Anticancer Drug Screen. Data for the CLN2oe strain (AID 163);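 also: 0% = growth of vehicle-only control cultures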
TEST CONTEXT: S. cerevisiae CLN2oe strain, at 11.0 µM
Compounds without any hit were thinned out: in the full panel of roughly 79,000, 15% have a hit. Activity calls are given as the source filed them. Rule as the data show it: active = growth inhibition above about 70%; inactive = the rest.
Parameter call: string, one of active, inactive

Sample answers from the record:
Ask: I'd appreciate the recorded outcome for COC1=CC(=O)C2C(C1=O)C(c1ccc(Cl)cc1)[C@@H]2C (stereo partly specified) from this test.
Reply: active

Ask: I'd appreciate the recorded outcome for CN1c2ccc(Cl)cc2C(=O)NC1c1ccc([N+](=O)[O-])s1 (stereo unspecified) from this test.
Reply: inactive

Ask: I'd appreciate the recorded outcome for `Cc1nn(-c2cc(Cl)ccc2[N+](=O)[O-])c(C)c1Cl` from this test.
Reply: inactive

Ask: I'd appreciate the recorded outcome for CC(=O)OCC(=O)C1(O)CCC2C3CCC4CCCCC4(C)C3CCC21C (stereo unspecified) from this test.
Reply: inactive

Ask: I'd appreciate the recorded outcome for `Cc1ccc(-c2ccc(Nc3c4ccccc4nc4ccccc34)cc2)cn1` from this test.
Reply: inactive

Ask: I'd appreciate the recorded outcome for `c1ccc2c(c1)sc1nc3ccncc3nc12` from this test.
Reply: inactive

Ask: I'd appreciate the recorded outcome for `FC(F)(F)c1nc2nc(Cl)c(Cl)nc2n1CCCN1CCOCC1` from this test.
Reply: inactive

Ask: I'd appreciate the recorded outcome for `COC(=O)c1cc(-c2ccc(C)cc2)[nH]c(=O)c1C#N` from this test.
Reply: inactive

Ask: I'd appreciate the recorded outcome for CC(C)C1=CCC2C(=C1)CCC1C(C)(C(=O)O)CCCC21C (stereo unspecified) (tested in a mixture with another compound) from this test.
Reply: inactive

Ask: I'd appreciate the recorded outcome for `O=C(NCCCCCCCN1CCCCCCC1)C(C1CCCCC1)C1CCCCC1` from this test.
Reply: active

In the following, a different molecule is considered.
Ask: I'd appreciate the recorded outcome for CCc1ncnc2cc(OCC3CO3)c(OC)cc12 (stereo unspecified) from this test.
Reply: inactive

----------
ASSAY: NCI Yeast Anticancer Drug Screen. Data for the sgs1 strain (AID 173);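 also: 0% = growth of vehicle-only control cultures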
TEST CONTEXT: S. cerevisiae sgs1 mutant, at 100.0 µM, active compounds read high
Compounds without any hit were thinned out: in the full panel of roughly 79,000, 15% have a hit.
Please assign a class to every record based on measured growth inhibition, with ranges low range: < 50%; mid range: ≥ 50% and < 90%; high range: ≥ 90%

Sample answers from the record:
Ask: Which bin should I file `O=C1C=CC(=O)N1c1ccc2c(c1)Cc1cc(NC(=O)C(F)(F)F)ccc1-2` under?
Reply: mid range

Ask: Which bin should I file `CC[C@@]1(O)C(=O)OCc2c1cc1n(c2=O)Cc2cc3c(N)cccc3nc2-1` under?
Reply: low range

Ask: Which bin should I file `[O-][n+]1c2ccc(O)cc2nc2ccc(Br)cc21` under?
Reply: mid range

Ask: Which bin should I file `CC1CCN(CCC(=O)c2ccc(Cl)cc2)CC1` under?
Reply: mid range

Ask: Which bin should I file `C[S+](C)C1(c2ccccc2)C(=O)c2ccccc2C1=O` under?
Reply: mid range

Further cases:
Ask: Which bin should I file `CCC(=O)OCCn1c2nc(=O)[nH]c(=O)c-2nc2cc(C)c(C)cc21` under?
Reply: high range

Ask: Which bin should I file O=C(c1ccc(Cl)cc1)C1OC12C(=O)Nc1ccccc12 (stereo unspecified) under?
Reply: high range

Ask: Which bin should I file `Cc1nc(-c2ccccc2)c(-c2ccccc2)s1` under?
Reply: high range

Ask: Which bin should I file COc1cc(C2SCC(=O)N2c2nnc(C(F)(F)F)s2)cc(OC)c1OC (stereo unspecified) under?
Reply: low range

----------
ASSAY: NCI Yeast Anticancer Drug Screen. Data for the mlh1 rad18 strain (AID 175)
TEST CONTEXT: S. cerevisiae mlh1 rad18 strain growth inhibition; at 50.0 µM
This is part of a sample that, as a whole, favours compounds with a hit. Of some 79,000 tested, about 15% had one in any assay. Activity calls are given as the source filed them. No stated cut-off is given here; in the data, active means growth inhibition above about 70%; inactive means the rest.
Parameter call: string, one of Y (active), N (inactive)

Ask: I'd appreciate the recorded outcome for `O=C(O)c1ccccc1NC(=S)c1ccccc1` from this test.
Reply: N
